Target: 1321N1-hP2X3 receptor (Homo sapiens)
Sequence (P56373 1-397): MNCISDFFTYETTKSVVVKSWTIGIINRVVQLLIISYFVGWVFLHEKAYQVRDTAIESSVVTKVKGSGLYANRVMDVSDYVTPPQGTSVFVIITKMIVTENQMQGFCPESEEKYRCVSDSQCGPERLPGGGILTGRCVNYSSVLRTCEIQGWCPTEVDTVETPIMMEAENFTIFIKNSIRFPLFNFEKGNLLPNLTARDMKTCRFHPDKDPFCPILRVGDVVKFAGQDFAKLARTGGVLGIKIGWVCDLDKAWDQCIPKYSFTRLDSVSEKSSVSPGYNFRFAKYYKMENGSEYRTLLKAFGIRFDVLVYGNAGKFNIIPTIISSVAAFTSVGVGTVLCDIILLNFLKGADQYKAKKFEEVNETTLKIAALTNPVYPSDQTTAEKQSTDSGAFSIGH
Assay: Calcium ion mobility (FLIPR) in cells stably expressing 1321N1-hP2X3 receptors
Settings: calcium signal, agonist at EC80
// assign Criterion met if IC50 falls strictly below 100 nM, else Criterion not met (ties count as Criterion not met)

smi	discrete label
CC(C)c1cc2n(CC(=O)Nc3ccc(F)cn3)c(=O)c3ccc(C(F)(F)F)nc3n2n1	Criterion not met
O=C(Cn1c(=O)c2ccc(C(F)(F)F)nc2n2nccc12)Nc1ccc(F)cn1	Criterion met
Cc1ncccc1-c1cc2n(CC(=O)Nc3ccc(F)cn3)c(=O)c3ccc(C(F)(F)F)nc3n2n1	Criterion not met
O=C(Cn1c(=O)c2ccc(C(F)(F)F)nc2n2nc(C(F)(F)F)cc12)Nc1ccc(F)cn1	Criterion not met
CCc1cc2n(CC(=O)Nc3ccc(F)cn3)c(=O)c3ccc(C(F)(F)F)nc3n2n1	Criterion met
N#Cc1cnn2c3nc(C(F)(F)F)ccc3c(=O)n(CC(=O)Nc3ccc(F)cn3)c12	Criterion met
Cc1cc(-c2cc3n(CC(=O)Nc4ccc(F)cn4)c(=O)c4ccc(C(F)(F)F)nc4n3n2)c(C)cn1	Criterion not met
Cc1cnccc1-c1cc2n(CC(=O)Nc3ccc(F)cn3)c(=O)c3ccc(C(F)(F)F)nc3n2n1	Criterion not met
O=C(Cn1c(=O)c2ccc(C(F)(F)F)nc2n2nc(C3CCCC3)cc12)Nc1ccc(F)cn1	Criterion not met
CC(C)(C)c1cc2n(CC(=O)Nc3ccc(F)cn3)c(=O)c3ccc(C(F)(F)F)nc3n2n1	Criterion met
O=C(Cn1c(=O)c2ccc(C(F)(F)F)nc2n2nc(Br)cc12)Nc1ccc(F)cn1	Criterion met
Cc1cc(-c2cc3n(CC(=O)Nc4ccc(F)cn4)c(=O)c4cccnc4n3n2)c(C)cn1	Criterion not met
N#Cc1cc2n(CC(=O)Nc3ccc(F)cn3)c(=O)c3ccc(C(F)(F)F)nc3n2n1	Criterion met
CC1(c2cc3n(CC(=O)Nc4ccc(F)cn4)c(=O)c4ccc(C(F)(F)F)nc4n3n2)CC1	Criterion not met
O=C(Cn1c(=O)c2ccc(C(F)(F)F)nc2n2nccc12)Nc1ccc(Cl)cn1	Criterion not met
CC(C)(C)c1cc2n(CC(=O)Nc3ccc(F)cn3)c(=O)c3cccnc3n2n1	Criterion met
